- TARGET: Phosphatidylinositol 4,5-bisphosphate 3-kinase catalytic subunit alpha isoform (Homo sapiens)
- ASSAY_DETAILS: Inhibition of PI3Kalpha (unknown origin)
MEASURE_NAME: pKi
Field pKi (float): negative decimal logarithm of the concentration in molar.

The compound identified as `COc1ncc(-c2cc(-c3ncc(CN4C[C@@H](C)O[C@@H](C)C4)o3)c3cn[nH]c3c2)cc1NS(C)(=O)=O` registered its pKi at 6.30

* * *

- TARGET: Phosphatidylinositol 4,5-bisphosphate 3-kinase catalytic subunit delta isoform (Homo sapiens, UniProt O00329)
- Sequence (O00329 whole entry, canonical isoform): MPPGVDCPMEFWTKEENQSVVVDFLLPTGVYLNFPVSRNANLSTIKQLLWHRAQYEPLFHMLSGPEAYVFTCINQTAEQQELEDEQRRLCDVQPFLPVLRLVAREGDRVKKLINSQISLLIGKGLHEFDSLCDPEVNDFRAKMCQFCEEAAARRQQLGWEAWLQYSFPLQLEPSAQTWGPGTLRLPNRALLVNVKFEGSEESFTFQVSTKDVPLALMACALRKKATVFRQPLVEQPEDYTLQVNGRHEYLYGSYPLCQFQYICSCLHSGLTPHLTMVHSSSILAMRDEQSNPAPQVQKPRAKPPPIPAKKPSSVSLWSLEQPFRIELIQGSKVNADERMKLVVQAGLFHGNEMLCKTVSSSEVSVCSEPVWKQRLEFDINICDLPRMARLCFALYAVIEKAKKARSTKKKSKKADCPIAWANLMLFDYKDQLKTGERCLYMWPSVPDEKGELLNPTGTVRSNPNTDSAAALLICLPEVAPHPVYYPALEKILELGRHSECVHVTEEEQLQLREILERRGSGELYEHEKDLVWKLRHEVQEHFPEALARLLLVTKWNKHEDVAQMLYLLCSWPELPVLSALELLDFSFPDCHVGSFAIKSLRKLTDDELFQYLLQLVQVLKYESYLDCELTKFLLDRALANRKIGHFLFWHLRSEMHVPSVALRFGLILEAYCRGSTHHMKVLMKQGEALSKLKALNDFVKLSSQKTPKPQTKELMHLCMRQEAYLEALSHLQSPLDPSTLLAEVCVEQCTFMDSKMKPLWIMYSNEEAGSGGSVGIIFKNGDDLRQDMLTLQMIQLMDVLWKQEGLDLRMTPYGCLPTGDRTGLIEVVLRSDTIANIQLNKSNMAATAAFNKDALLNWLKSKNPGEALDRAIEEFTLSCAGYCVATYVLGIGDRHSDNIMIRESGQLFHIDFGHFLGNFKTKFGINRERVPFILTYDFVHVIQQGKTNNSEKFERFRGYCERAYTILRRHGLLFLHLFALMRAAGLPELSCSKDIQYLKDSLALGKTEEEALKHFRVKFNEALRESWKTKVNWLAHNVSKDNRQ
- ASSAY_DETAILS: Inhibition of PI3Kdelta (unknown origin)
MEASURE_NAME: IC50 (nM)
State the answer as a number, implicitly in nM.

The compound identified as `Cc1nnc2n1[C@@H]1CCN(Cc3cc4nc(-c5cccc6[nH]ccc56)nc(N5CCOCC5)c4s3)C[C@@H]1CC2` registered its IC50 at 0.794

The compound identified as `Cc1nc(C(=O)Nc2cc(-c3cnc(Cl)c(NS(=O)(=O)c4ccccc4)c3)cc3[nH]ncc23)cs1` registered its IC50 at 2

* * *

- TARGET: Phosphatidylinositol 4,5-bisphosphate 3-kinase catalytic subunit beta isoform (Homo sapiens)
- Sequence (P42338 whole entry, canonical isoform): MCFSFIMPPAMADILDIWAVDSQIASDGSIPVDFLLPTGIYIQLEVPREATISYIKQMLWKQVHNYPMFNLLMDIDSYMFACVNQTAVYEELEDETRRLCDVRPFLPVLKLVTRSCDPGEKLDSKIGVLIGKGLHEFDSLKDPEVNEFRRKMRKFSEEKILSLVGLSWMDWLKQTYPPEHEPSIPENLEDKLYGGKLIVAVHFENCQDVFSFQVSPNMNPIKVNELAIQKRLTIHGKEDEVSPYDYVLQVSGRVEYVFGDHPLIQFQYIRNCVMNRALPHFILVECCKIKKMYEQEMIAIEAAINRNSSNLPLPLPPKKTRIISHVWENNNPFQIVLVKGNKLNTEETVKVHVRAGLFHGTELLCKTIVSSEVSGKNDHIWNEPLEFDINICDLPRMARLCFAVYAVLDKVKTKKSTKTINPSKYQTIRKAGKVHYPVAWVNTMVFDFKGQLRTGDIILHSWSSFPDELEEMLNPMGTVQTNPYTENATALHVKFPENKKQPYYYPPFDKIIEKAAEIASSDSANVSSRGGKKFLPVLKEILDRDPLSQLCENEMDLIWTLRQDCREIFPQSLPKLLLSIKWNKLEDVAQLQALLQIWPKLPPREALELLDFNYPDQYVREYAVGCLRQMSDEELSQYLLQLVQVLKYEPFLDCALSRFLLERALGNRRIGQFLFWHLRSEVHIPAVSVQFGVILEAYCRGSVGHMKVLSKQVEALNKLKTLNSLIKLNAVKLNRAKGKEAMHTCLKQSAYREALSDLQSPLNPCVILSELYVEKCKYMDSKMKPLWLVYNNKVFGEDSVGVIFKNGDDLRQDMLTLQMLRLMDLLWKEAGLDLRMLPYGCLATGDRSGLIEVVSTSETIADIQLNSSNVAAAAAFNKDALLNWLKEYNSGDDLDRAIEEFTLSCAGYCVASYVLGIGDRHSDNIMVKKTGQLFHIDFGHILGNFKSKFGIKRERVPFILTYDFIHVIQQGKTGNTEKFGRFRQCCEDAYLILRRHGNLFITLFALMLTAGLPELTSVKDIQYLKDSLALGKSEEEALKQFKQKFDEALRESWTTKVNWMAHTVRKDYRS
- ASSAY_DETAILS: Inhibition of PI3Kbeta (unknown origin)
MEASURE_NAME: Ki (nM)
State the answer as a number, implicitly in nM.

The compound identified as `COc1ncc(-c2cc(-c3ncc(CN4C[C@@H](C)O[C@@H](C)C4)o3)c3cn[nH]c3c2)cc1NS(C)(=O)=O` registered its Ki at 631

* * *

- TARGET: Phosphatidylinositol 4,5-bisphosphate 3-kinase catalytic subunit alpha isoform (Homo sapiens, UniProt P42336)
- Sequence (P42336 whole entry, canonical isoform): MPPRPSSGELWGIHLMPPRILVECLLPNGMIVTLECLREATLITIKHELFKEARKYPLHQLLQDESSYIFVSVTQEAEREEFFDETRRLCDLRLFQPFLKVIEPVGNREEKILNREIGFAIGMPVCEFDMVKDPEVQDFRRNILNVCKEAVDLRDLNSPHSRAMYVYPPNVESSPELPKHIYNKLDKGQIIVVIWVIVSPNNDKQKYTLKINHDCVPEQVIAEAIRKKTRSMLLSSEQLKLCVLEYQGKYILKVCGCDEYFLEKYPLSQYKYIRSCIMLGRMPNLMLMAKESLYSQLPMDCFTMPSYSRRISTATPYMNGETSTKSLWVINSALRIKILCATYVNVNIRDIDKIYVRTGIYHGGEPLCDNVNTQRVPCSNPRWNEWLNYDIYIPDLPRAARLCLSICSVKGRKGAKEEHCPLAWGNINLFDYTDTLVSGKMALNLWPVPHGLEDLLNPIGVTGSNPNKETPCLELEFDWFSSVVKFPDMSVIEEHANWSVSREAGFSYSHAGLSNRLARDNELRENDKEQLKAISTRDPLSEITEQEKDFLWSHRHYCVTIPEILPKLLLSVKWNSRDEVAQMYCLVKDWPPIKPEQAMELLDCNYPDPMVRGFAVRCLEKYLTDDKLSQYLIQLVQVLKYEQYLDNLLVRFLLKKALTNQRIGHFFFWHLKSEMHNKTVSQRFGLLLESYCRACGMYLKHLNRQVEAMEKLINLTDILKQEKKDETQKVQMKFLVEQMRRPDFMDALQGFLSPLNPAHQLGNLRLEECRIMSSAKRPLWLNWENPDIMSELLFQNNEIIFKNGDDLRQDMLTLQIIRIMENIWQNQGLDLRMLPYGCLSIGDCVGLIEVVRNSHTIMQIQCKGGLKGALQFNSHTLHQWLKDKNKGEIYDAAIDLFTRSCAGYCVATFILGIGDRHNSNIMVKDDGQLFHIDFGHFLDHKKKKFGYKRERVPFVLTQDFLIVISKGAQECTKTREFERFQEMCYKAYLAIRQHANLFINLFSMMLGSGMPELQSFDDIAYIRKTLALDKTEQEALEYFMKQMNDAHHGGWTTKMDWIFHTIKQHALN
- ASSAY_DETAILS: Inhibition of PI3Kalpha (unknown origin)
MEASURE_NAME: IC50 (nM)
State the answer as a number, implicitly in nM.

The compound identified as `Cc1nc(C(=O)Nc2cc(-c3cnc(Cl)c(NS(=O)(=O)c4ccccc4)c3)cc3[nH]ncc23)cs1` registered its IC50 at 316

* * *

- ASSAY_DETAILS: Aqueous solubility of the compound at pH 7.4
- Assay type: physicochemical
MEASURE_NAME: solubility (mg/mL)
State the answer as a number, implicitly in mg/mL.

The compound identified as `Cc1nnc2n1[C@@H]1CCN(Cc3cc4nc(-c5cccc6[nH]ccc56)nc(N5CCOCC5)c4s3)C[C@@H]1CC2` registered its solubility at 0.02
